- Measured On: T1, human amylin receptor (amylin 3(a) receptor: human calcitonin receptor plus RAMP-3) (human, UniProt P30988 25-474; O60896 24-148)
- T1 sequence (looked up) 1: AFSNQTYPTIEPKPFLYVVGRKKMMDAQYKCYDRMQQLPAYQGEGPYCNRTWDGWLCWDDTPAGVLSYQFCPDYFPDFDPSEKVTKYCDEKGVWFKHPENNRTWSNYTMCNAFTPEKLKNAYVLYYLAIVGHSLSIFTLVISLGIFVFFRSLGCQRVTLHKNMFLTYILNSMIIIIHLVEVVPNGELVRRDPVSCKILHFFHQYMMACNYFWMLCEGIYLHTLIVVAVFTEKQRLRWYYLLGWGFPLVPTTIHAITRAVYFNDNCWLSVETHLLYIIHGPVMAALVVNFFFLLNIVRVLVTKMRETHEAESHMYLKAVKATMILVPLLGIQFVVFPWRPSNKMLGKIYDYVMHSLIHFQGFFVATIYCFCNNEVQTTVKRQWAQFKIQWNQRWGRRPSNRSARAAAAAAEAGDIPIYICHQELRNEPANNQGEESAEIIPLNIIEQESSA
- T1 sequence (looked up) 2: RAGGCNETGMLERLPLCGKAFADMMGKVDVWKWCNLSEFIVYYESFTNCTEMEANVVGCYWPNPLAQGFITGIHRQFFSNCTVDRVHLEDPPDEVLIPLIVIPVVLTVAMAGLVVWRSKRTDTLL
- Method Description: cell-based or functional assay
Numbered stars: 1 amine (or outer) side, 2 acyl side, 3 side chain; on linkers, the order of the positions; unused ones are H or OH. Bridge positions count the residues as written; N and C are the ends. Side chains are listed from the residue outwards. Ends that are not written are not given here. * marks the point of attachment. C20 diacid = O=C(O)CCCCCCCCCCCCCCCCCCC(=O)*; γGlu = O=C(O)[C@H](CCC(=O)[*:2])N[*:1]
Measure Name: Ratio hCT/hAmylin funct.
Answers are plain numbers.

For every record below, what is its Ratio hCT/hAmylin funct.?
1. K([γGlu-γGlu-C20 diacid])CNTATCATQRLAEFLRHSSPNFGAILSSTPVGPETY-NH2 (disulfide 2-7 (inferred))
2. KCNTATCATQRLANFLRHSSPNFGAIPSSTNVGSETY (C20 diacid-gGlu on the alpha amino group of the N-terminal residue (Lys1); disulfide Cys2-Cys7 and C-terminal amide as in human amylin, also called compound 23) [N^α1-[(4S)-4-carboxy-4-(19-carboxynonadecanoylamino)butanoyl]-[Arg17,Pro21,Pro27,Glu35]-h-amylin]
3. K([γGlu-γGlu-C20 diacid])CNTATCATQRLADFLRHSSPNFGAIPSSTNVGPETY-NH2 (disulfide 2-7)
4. {C20 diacid-γGlu}-KCNTATCATQRLAEFLRHSSPNFGAILPSTNVGSETY-NH2 (disulfide 2-7, also called compound 33)

[5.8, 8.9, 5.3, 2.2]
